Values were extracted from ChEMBL document CHEMBL1212919.

experiment: Inhibition of alpha-(1,6)-fucosyltransferase after 60 mins by Lineweaver-Burke plot analysis
readout: pKi
Entry type: numeric. Quantity: pKi, the -log10 of concentration in molar units.

Determine its reported pKi: "CCCCCc1ccc(-c2cn(C[C@@H]3O[C@H](OP(=O)(O)OP(=O)(O)OC[C@H]4O[C@@H](n5cnc6c(=O)[nH]c(N)nc65)[C@H](O)[C@@H]4O)[C@@H](O)[C@H](O)[C@@H]3O)nn2)cc1" 4.86
